pIC50: −log10 of the molar value.
Published pIC50 for Serine/threonine-protein kinase PLK1 (Homo sapiens), assembled from different documents, is shown next.

Molecule	pIC50
CNC(=O)c1cc(CCCN2CCOCC2)n(-c2ccccc2)c1C	3.26

Serine/threonine-protein kinase PLK1 (Homo sapiens) pIC50 of O=C1Nc2ccc([N+](=O)[O-])cc2C1(O)N1CCCCC1 (stereo not given) is < 4.30

Serine/threonine-protein kinase PLK1 (Homo sapiens) pIC50 of `Cc1cccc2[nH]c3c(N4CCN(C(=O)c5ccco5)CC4)ncnc3c12` is < 4.30

Serine/threonine-protein kinase PLK1 (Homo sapiens) pIC50 of `O=C(NC1(O)C(=O)c2ccccc2C1=O)c1ccccc1` is < 4.30

Serine/threonine-protein kinase PLK1 (Homo sapiens) pIC50 of `O=C(Nc1ccc(CN2CCOCC2)cc1)c1ccc(-c2cccc(Cl)c2)o1` is < 4.30

Serine/threonine-protein kinase PLK1 (Homo sapiens) pIC50 of `CCC(=O)Nc1ccc(-c2nnc(SCC(=O)Nc3nccs3)n2C)cc1` is < 4.30

Serine/threonine-protein kinase PLK1 (Homo sapiens) pIC50 of `COc1ccc(Cn2c(=O)sc3ccccc32)cc1` is < 4.30

Serine/threonine-protein kinase PLK1 (Homo sapiens) pIC50 of `COc1ccc(N(C)C2=NS(=O)(=O)c3ccccc32)cc1` is < 4.30

Serine/threonine-protein kinase PLK1 (Homo sapiens) pIC50 of `Cn1nc(-c2ccc(Cl)cc2)nc2c(=O)n(C)c(=O)nc1-2` is 5.61

Serine/threonine-protein kinase PLK1 (Homo sapiens) pIC50 of `CC(=O)c1cnc(Nc2ccc(N3CCN(C)CC3)cc2)nc1NC1CCCC1` is 6.46

###

Published pIC50 for Serine/threonine-protein kinase PLK1 (Homo sapiens), assembled from different documents, is shown next.
pIC50: −log10 of the molar value.

# example entries with known answers
Molecule	Result value
CC(=O)N(N=C1Sc2ccccc2C1=O)c1cccc(C)c1	4.48
O=c1oc2ccc(O)cc2c2c1NCCC2	4.66
COc1ccc2c(c1OC)C(=O)OC2CC(=O)O (stereo unspecified)	< 4.30
CC1Cc2ccccc2N1C(=O)c1ccc2c(c1)nnn2C (stereo unspecified)	< 4.30
CCC1=NNc2cccc3c(OC)ccc1c23	< 4.30
COc1ccc(Nc2oc(-c3ccccc3Cl)nc2C#N)cc1	< 4.30
CCc1noc(C)c1C(=O)N1CCOCC1	< 4.30
CCc1nc2cc(Cl)c(Cl)cc2[nH]1	< 4.30
Cn1c(=O)c(NCCO)c2c3c(cccc31)C(=O)c1ccccc1-2	5.74
COc1cc(OC)cc(C(=O)NCCCN2CCOCC2)c1	< 4.30

Serine/threonine-protein kinase PLK1 (Homo sapiens) pIC50 of CCC(Sc1nc2nnc(C)c-2c(N)n1-c1cccc(Cl)c1)C(=O)NCCOC (stereo unspecified) is < 4.30

Serine/threonine-protein kinase PLK1 (Homo sapiens) pIC50 of `O=C(c1ccc(-n2cnnn2)cc1)N1CCCCC1` is < 4.30

Serine/threonine-protein kinase PLK1 (Homo sapiens) pIC50 of `O=C1CCN2C=Nc3cccc4ccc1c2c34` is 4.60

Serine/threonine-protein kinase PLK1 (Homo sapiens) pIC50 of `CCCCOC(=O)c1ccc(NC(=O)c2c(N)n(C)c(=O)[nH]c2=O)cc1` is < 4.30

Serine/threonine-protein kinase PLK1 (Homo sapiens) pIC50 of `COc1ccc2c3c(cccc13)NN=C2C` is < 4.30

Serine/threonine-protein kinase PLK1 (Homo sapiens) pIC50 of `CCC(=O)Nc1ccccc1C(=O)NC1CCCCC1` is < 4.30
